Assign melting point to each entry below.

# batch size: 8; output melting point per entry
1. C/C(=N/O)[C@@H]1C[C@H](C(=O)OC(C)(C)C)N(C(=O)CNC(=O)Nc2cccc(C)c2)[C@@H]1c1ccccc1 (racemic)
2. COC(=O)NC(CCc1ccccc1)C(=O)OCC(Cl)(Cl)Cl (centres undefined)
3. COC(=O)c1cc(-c2ccc(OC)c(OC)c2)nc2ccc(Br)cc12
4. COc1ccc2c(c1)C1=C[C@@H](C(=O)NC(C)(C)C)CN(C)[C@@H]1CO2 (relative stereo)
5. O=C(Nc1nnn(C(F)F)n1)C1c2ccccc2Oc2ccccc21
6. O=C(NCc1ccccc1Cl)c1ccccc1CN1C(=O)C2(COc3cc4c(cc32)CCO4)c2ccccc21 (centres undefined)
7. NCc1ccn(-c2cc3[nH]c(=O)c(=O)[nH]c3cc2[N+](=O)[O-])c1
8. CCCCCCCCCCCCCCCCCCN(CCCCCCCCCCCCCCCCCC)C(=O)N1CCN(C)CC1

Result string:
1: 166 °C; 2: 31 to 35 °C; 3: 154 °C; 4: 188 to 189 °C; 5: 168 to 169 °C; 6: 148 to 150 °C; 7: > 300 °C; 8: 46 to 47 °C

# batch size: 2; output melting point per entry
1. OCc1nccc(N2CCCCC2)n1
2. CC(c1ccc(Br)cc1)N1CCC(NC(=O)CCc2nc(-c3ccccn3)no2)CC1 (centres undefined)

Result string:
["92 to 93 °C", "142 to 143 °C"]

# batch size: 5; output melting point per entry
1. Cc1ccn2c(C)c(CCc3ccc4nc(N(C)C)oc4c3)nc2c1
2. CC(=O)NC(=S)N1CCSC1c1ccccc1OCCN1CC=C(c2cccc(F)c2)CC1 (centres undefined)
3. COc1cc2c(Nc3ccc(Cl)cc3F)ncnc2cc1OCCCOc1ccncc1
4. NS(=O)(=O)c1ccc(C#Cc2cnc3c(C(F)(F)F)cc(-c4ccc(C(F)(F)F)cc4)cn23)cc1
5. CC(O)(C(=O)Nc1ccc(S(=O)(=O)F)cc1)C(F)(F)F (centres undefined)

Result string:
1. 67 to 69 °C
2. 135 to 136 °C
3. 138 to 140 °C
4. 278 to 280 °C
5. 152 to 154 °C

---

Assign melting point to each entry below.

Here are 3 compounds together with their reported answers.
- compound: "CCN1CCC=C(c2csc(N)n2)C1"
  result: "116 to 120 °C"
- compound: "NC(=O)c1cc(CN2C(=O)C3(COc4cc5c(cc43)OCO5)c3ccccc32)oc1C(F)(F)F (centres undefined)"
  result: "172 to 174 °C"
- compound: "COC(=O)c1c[nH]c(C(=O)c2ccc(C)cc2)c1"
  result: "155 to 159 °C"

# context switch: different compound, same melting point
Documented melting point of `CCOc1cc2ncc(C#N)c(Nc3ccc4c(c3)C(=O)NC4=O)c2cc1OCC` : 248 to 251 °C

---

Assign melting point to each entry below.

Here are 3 molecules together with their reported answers.
- molecule: "NC(=O)N(O)Cc1cccc(C(O)C#Cc2cccnc2)c1 (centres undefined)"
  melting point: "153 °C"
- molecule: "Cc1cc(C2=NOC(c3cccc(C(F)(F)F)c3)(C(F)(F)F)C2)ccc1Br (centres undefined)"
  melting point: "84 to 85 °C"
- molecule: "CCCCCCCCN(C)C(=O)C(C)(C)n1cc(C)c(-c2ccccc2)n1"
  melting point: "75 to 78 °C"

# context switch: different molecule, same melting point
Documented melting point of `COC(=O)c1cc(C(=O)OC)n(-c2ccc(N)cc2C(=O)c2ccccc2)n1` : 171 to 172 °C

Data origin, for the record: a melting point compilation (Tetko et al.; mined from patent text by program, amines drawn as free bases though some values may be those of a salt)
